FYI, the data here is from ChEMBL document CHEMBL4043073.

assay: Selectivity index, ratio of CC50 for MDCK cells to IC50 for Influenza A virus (A/Puerto Rico/8/34(H1N1)) infected in MDCK cells assessed as reduction in virus-induced cytopathic effect; type: toxicity, cell-based; conditions: dog, read-out: Ratio CC50/IC50
measured-quantity: selectivity ratio
Provide a numeric answer; units are not to be included.

{"columns": ["smiles-string", "measured-result"],
 "data": [
  ["Nc1ccccc1Nc1c2ccccc2nc2c1[nH]c1ccccc12", 0.8],
  ["CCOC(=O)C1=C[C@@H](OC(CC)CC)[C@H](NC(C)=O)[C@@H](N)C1", 36.2]
]}

Fill in: selectivity ratio of `O=C(Nc1ccccc1Nc1c2ccccc2nc2c1[nH]c1ccccc12)c1cccc(B(O)O)c1` is ___ 27.9

###

experiment: Selectivity index, ratio of CC50 for MDCK cells to IC50 for Influenza A virus (A/Puerto Rico/8/34(H1N1)) infected in MDCK cells by plaque assay; assay type: toxicity, cell-based; details: dog, read-out: Ratio CC50/IC50
measured-quantity: selectivity ratio
Provide a numeric answer; units are not to be included.

Fill in: selectivity ratio of `Nc1ccccc1Nc1c2ccccc2nc2c1[nH]c1ccccc12` is ___ 1.5

###

tested on: Influenza A virus; test: Antiviral activity against Influenza A virus (A/Puerto Rico/8/34(H1N1)) infected in MDCK cells assessed as reduction in virus titer preincubated with virus for 1 hr followed by viral infection measured after 24 hrs by crystal violet staining based plaque assay; format: functional, cell-based; conditions: A/Puerto Rico/8/1934(H1N1)
measured-quantity: IC50 (nM)
A number alone suffices; assume nM.

Fill in: IC50 of `O=C(Nc1ccccc1Nc1c2ccccc2nc2c1[nH]c1ccccc12)c1cccc(B(O)O)c1` is ___ 2200

###

test system: Influenza A virus; test: Antiviral activity against Influenza A virus (A/Puerto Rico/8/34(H1N1)) infected in MDCK cells assessed as virus yeild reduction preincubated with virus at 37 degreeC for 1 hr followed by viral infection for 1 hr measured after 3 days by crystal violet staining based plaque assay; type: functional, cell-based; conditions: A/Puerto Rico/8/1934(H1N1)
measured-quantity: IC50
Give the number first and the unit second.

Fill in: IC50 of `O=C(Nc1ccccc1Nc1c2ccccc2nc2c1[nH]c1ccccc12)c1cccc(B(O)O)c1` is ___ 3.2 µM

###

experiment: Cytotoxicity against MDCK cells after 48 hrs by resazurin based fluorescence method; type: cell-based, Canis lupus familiaris; settings: dog
Each entry below carries its reported CC50 at 48 h.
A number alone suffices; assume µM.

# count of solved cases: 2
{"columns": ["smiles-string", "measured-result"],
 "data": [
  ["Nc1ccccc1Nc1c2ccccc2nc2c1[nH]c1ccccc12", 37.9],
  ["O=C(Nc1ccccc1Nc1c2ccccc2nc2c1[nH]c1ccccc12)c1cccc(B(O)O)c1", 142]
]}

Fill in: CC50 at 48 h of `O=C(Nc1ccccc1Nc1c2ccccc2nc2c1[nH]c1ccccc12)c1ccc(B(O)O)cc1` is ___ 78.6

###

Each entry below carries its reported inhibition.
system: Influenza A virus (A/Puerto Rico/8/1934(H1N1)); test: Inhibition of Influenza A virus (A/Puerto Rico/8/34(H1N1)) neuraminidase using MUNANA as substrate preincubated for 30 mins followed by substrate addition measured after 30 mins by fluorescence assay relative to control

# count of solved cases: 2
{"columns": ["smiles-string", "inhibition"],
 "data": [
  ["CC(=O)N[C@H]1[C@H]([C@H](O)[C@H](O)CO)OC(C(=O)O)=C[C@@H]1NC(=N)N", "> 85%"],
  ["O=C(Nc1ccccc1Nc1c2ccccc2nc2c1[nH]c1ccccc12)c1cccc(B(O)O)c1", "72%"]
]}

Fill in: inhibition of `O=C(Nc1ccccc1Nc1c2ccccc2nc2c1[nH]c1ccccc12)c1ccc(B(O)O)cc1` is ___ 56%
